Conditions: rat; liver microsomes; pH 7.4; 15.0 min; 1.0 µM
endpoint: half-life (min)
Kindly answer with a numeric value in min, unit omitted.

Example entries and their recorded answers appear below.
CC(=O)C1CCN(c2ncc(-c3cccc(N(C)C)c3)s2)CC1 = 2.51
COc1ccc(Cl)cc1C(=O)Nc1nc(-c2ccccc2)cs1 = 24

# next compound below
Req: Indicate its recorded half-life; the compound in question is N#Cc1ccccc1S(=O)(=O)Nc1cnccc1C(=O)Nc1nc(-c2ccccc2)cs1
Resp: 7

###

Conditions: rat; liver microsomes; pH 7.4; 15.0 min; 1.0 µM
molecules and their reported half-life
Please respond with the number in min and leave the unit unwritten.

Some molecules with recorded half-life:
Cc1nsc(N)c1C(=O)N(C)CCOc1ccccc1Cl = 3.7
CC(C)c1ccccc1-c1nc2c(c(NCc3ccc(-c4cccnc4)cc3)n1)CNC2 = 6.21
COc1ccc(Nc2ncc(C(=O)Nc3cccc(Cl)c3)c3ccccc23)cc1 = 16.5
O=C(Nc1cc(Cc2ccccc2)ccn1)c1ccc(-c2cccc([N+](=O)[O-])c2)o1 = 4.8
Cc1ccc(S(=O)(=O)n2cc(C(=O)Nc3nc(-c4ccccc4)cs3)c3ccccc32)cc1 = 23

Req: Check the records and state half-life for COc1ccc(C(=O)NC2CCN(c3cnn(CC4CC4)c(=O)c3)CC2)c(OC)n1
Resp: 13.9

Req: Item O=C(NCc1ccccc1)c1nc(S(=O)(=O)Cc2ccc(F)cc2)ncc1Cl : provide half-life
Resp: 1.98

Req: Please give measured half-life of the following entry: CCCNC(=O)c1ccc2c(c1)N=C(C)c1c(C)ccc(C)c1S2
Resp: 1.34

###

Details: rat; liver microsomes; pH 7.4; 15.0 min; 1.0 µM
endpoint: log10 of half-life (log10 of the value in min)
Plainly stated, the numbers are log10 of half-life given in min.

Use these answered entries as a reference point.
Cc1ccc(-c2cc(C(=O)Nc3ccc(-n4cncn4)cc3)c3ccccc3n2)cc1C = 1.36
C=CC(=O)Nc1cccc(Oc2nc(Nc3ccc(N4CCN(C)CC4)cc3)ncc2Cl)c1 = 0.49
Nc1c(C(=O)Nc2ccc(Cl)cc2)sc2nc3c(cc12)N1CCC3CC1 = 1.38
O=C(NC1CCCCC1)N1Cc2[nH]cnc2C[C@H]1c1nc(-c2cccc([N+](=O)[O-])c2)no1 = 1.01
CC(=O)c1c(C)[nH]c(C(=O)Nc2cccc(S(=O)(=O)N3CCCCCC3)c2)c1C = 0.20

Req: Return value of log10 of half-life for input O=C1CCCC2=C1C(c1[nH]ncc1Br)N=C(Nc1nc3ccccc3o1)N2 (stereo not given) , no commentary.
Resp: 1.15

Req: Give log10 of half-life for the following compound: Cc1cnc(SCc2ccccn2)nc1C1CCCN(C(=O)c2scc3c2CCCC3)C1 (stereo not given)
Resp: 0.00

Req: Find the measured log10 of half-life of CCOC(=O)c1nnc(N[S+](=O)([O-])c2ccc(NC(=O)Cc3ccc(Cl)c(Cl)c3)cc2)s1 and report it.
Resp: 0.78

Req: Annotate the compound CC(=O)N1CCc2cc(S(=O)(=O)NCCC3=CCCCC3)ccc21 with its measured log10 of half-life.
Resp: 0.11

Req: Please look at this compound and report its log10 of half-life: O=C(NCC1(c2nc(-c3ccccc3)cs2)CCOCC1)c1cccc(-c2noc(C(F)(F)F)n2)c1
Resp: 0.47

###

Conditions: rat; liver microsomes; pH 7.4; 15.0 min; 1.0 µM
endpoint: half-life (min)
State just the number; it will be interpreted in min.

Cc1ccc(NC(=O)c2cc(-c3ccc(C)o3)nc3ccccc23)nc1 = 8.3
O=C(c1cnc(N2CCCCC2)c2ccccc12)N1CCN(c2ccccn2)CC1 = 2.1
COc1ccc(-n2nc(C)c([C@@H]3C=C[C@@H](NCc4ccc(F)cc4)C3)c2C)cc1 = 6.66

Req: Find the measured half-life of CN(C)c1cccc(-c2ncc(F)c(N3CCC(C(N)=O)CC3)n2)c1 and report it.
Resp: 2.08

Req: Supply recorded half-life for CC(=O)c1c(C)[nH]c(C(=O)Nc2cccc([S+](=O)([O-])Nc3c(C)cccc3C)c2)c1C here.
Resp: 5

Req: Fill in reported half-life for this entry: Cc1nn2c(c1-c1ccccc1-c1ccccc1)N(Cc1ccc(O)cc1)CCC2
Resp: 1.97

Req: Provide only the value of recorded half-life for CCc1ccc(-n2nc(C)c3c2NC(=O)CSC3c2ccccc2C)cc1 (stereo unspecified)
Resp: 2.44

Req: Given Cc1cnc(CNc2nc(-c3ccccc3Cl)nc3ccccc23)cn1 , respond with its half-life.
Resp: 20

Req: Identify half-life associated with the compound Cc1ccc(S(=O)(=O)Nc2ccccc2C(=O)Nc2cccc(-c3ccccc3)c2)cc1
Resp: 3.5

Req: Identify the reported half-life for the following entry. Cc1cc(-c2nnc3n2CCCCC3)c(C)n1-c1ccncc1
Resp: 14

Req: Report half-life, nothing else, for this compound: O=C(c1ccncc1)N1CCC2(CCCN(C(c3ccccc3)c3ccccc3)C2)CC1
Resp: 2.2

Req: Input Cc1ccc(NC(=O)N2CCN(c3nc(N)nc4sc(-c5cccnc5)nc34)CC2)cc1 , output reported half-life.
Resp: 17.1

Req: Give the reported half-life for this compound. COc1ccc(OC)c(CN2CCNc3cc(Nc4ccccc4)ncc3C2)c1
Resp: 2.23

###

Settings: rat; liver microsomes; pH 7.4; 15.0 min; 1.0 µM
Overview of reported half-life across a group of molecules:
Just the number please, in min, no unit attached.

Cn1c(CN2CCCC2)nc2cc(NC(=O)COc3ccc(Cl)cc3)ccc21 = 8.4

Req: Give recorded half-life. CSc1ccc(-c2cnc(N3CCC(C(N)=O)CC3)s2)cc1
Resp: 1.53

###

Settings: rat; liver microsomes; pH 7.4; 15.0 min; 1.0 µM
Classify by measured half-life: t if it is equal to or exceeds 10 min, f if it is smaller.

Past entries and their recorded results:
O=C(Nc1ccc(F)cc1F)c1cc(-c2ccc[nH]2)n[nH]1 = t
NC(=O)C1CCN(c2nc(-c3ccccc3N)cs2)CC1 = t

Req: Answer whether half-life of CCCCOc1ccc(CC(=O)NO)cc1 is greater than or equal to 10 min.
Resp: t

Req: Can COC(=O)c1ccc(O)c2ncc(N3CCN(C)CC3)cc12 be said to have half-life at or above 10 min?
Resp: f

Req: Is reported half-life greater than or equal to 10 min here: CC(=O)c1c(C)[nH]c(C(=O)Nc2cccc([S+](=O)([O-])N3CC[C@@H](F)C3)c2)c1C
Resp: f

###

Conditions: rat; liver microsomes; pH 7.4; 15.0 min; 1.0 µM
endpoint: half-life (min)
Reply with just the number (in min).

Would you please look over these solved cases?
O=C(Nc1ncc([S+](=O)([O-])N2CCOCC2)s1)c1cccc(Br)c1 = 23
CCc1ccccc1C(=O)N1CCc2cc(-c3nc(NC(=O)Cc4ccc5c(c4)OCO5)sc3C)ccc21 = 7.2
COc1ccc(-c2nc(NC(C)c3ccccc3)c3ccccc3n2)cc1 (stereo not given) = 20.3
Nc1ncc(S(=O)(=O)N2CCN(c3ccccc3)CC2)cn1 = 1.3
O=C1CCCC2=C1C(C1CCCCC1Cl)N=C(NC1NC3CCCCC3S1)N2 (stereo not given) = 10.9

Req: Identify half-life associated with the compound Cc1noc(C)c1-c1ccc2ncnc(NC(C)c3ccccc3)c2c1 (stereo not given)
Resp: 7.65

###

Details: rat; liver microsomes; pH 7.4; 15.0 min; 1.0 µM
endpoint: half-life

COc1ccc(-c2nc3ccccc3c(=O)n2Cc2ccco2)cc1COc1ccc(NC(C)=O)cc1 = 2.17 min
O=C(Cc1ccc(Cl)c(Cl)c1)Nc1ccc(S(=O)(=O)Nc2nncs2)cc1 = > 30 min
CC[C@H]1C=CC=CC[C@@H](C)[C@H](O)[C@@](C)(O)C(=O)[C@@H](C)[C@H](O)[C@@H](C)C(=O)[C@@H](C)[C@H](O)[C@@H](C)C=CC(=O)O[C@@H]2[C@@H](C)[C@H](CC1)O[C@]1(CC[C@H](C)[C@H](C[C@@H](C)O)O1)[C@H]2C = > 30 min

Req: Name the recorded half-life of the molecule listed here: Cc1nnc2c3ccccc3nc(N3CCN(c4ccccc4)CC3)n12
Resp: > 30 min

Req: State its half-life: FC(F)(F)c1cccc(Nc2ccc(CNc3nc(-c4ccccc4C(F)(F)F)nc4ccccc34)cc2)c1
Resp: 15.6 min

###

Conditions: rat; liver microsomes; pH 7.4; 15.0 min; 1.0 µM
# half-life per entry
# number only, unit min dropped from output

# count of solved cases: 3
Cc1cccc(-n2cnc3cc(C(=O)N4CCCC(C(C)C)C4)ccc32)c1 (stereo unspecified) = 1.8
CN(C)c1ccc(CN2CCNc3cc(Nc4ccccc4)ncc3C2)cc1 = 2.01
NC(=O)C1CCN(c2nc(-c3ccc4c(c3)CCO4)cs2)CC1 = 5.55

Req: Output half-life of Nc1c(S(=O)(=O)c2cccs2)c2nc3ccccc3nc2n1Cc1ccccc1
Resp: 1.27

Req: Please report the measured half-life for Cc1ccc(-n2ncc3c(NCCCN(C)C)ncnc32)cc1Cl
Resp: 8.9

Req: Fill in half-life for record Cc1nn2c(c1-c1ccccc1-c1ccccc1)N(CCC(C)C)CCC2
Resp: 1.31

Data provenance: PubChem BioAssay AID1508591
